FYI, the data here is from paper PMC7785372.

- EXPERIMENT NOTES: Pharmacokinetic study of osimertinib in rats after oral administration, with or without ginsenoside Rg3 pretreatment
- Type: in vivo, Male Sprague-Dawley rats
- DETAILS: male, Sprague-Dawley, rat, in vivo, po, 10 mg/kg, CL/F
VALUE KIND: CL/F (mL/min/kg)
Output spec: scalar in mL/min/kg, unitless text.

Request the reported CL/F associated with C=CC(=O)Nc1cc(Nc2nccc(-c3cn(C)c4ccccc34)n2)c(OC)cc1N(C)CCN(C)C [Osimertinib]
330

----------
- EXPERIMENT NOTES: Pharmacokinetic study of osimertinib in rats after oral administration, with or without ginsenoside Rg3 pretreatment
- Type: in vivo, Male Sprague-Dawley rats
- DETAILS: male, Sprague-Dawley, rat, in vivo, po, 10 mg/kg, AUC0-∞
VALUE KIND: AUC(0-inf)

Request the reported AUC(0-inf) associated with C=CC(=O)Nc1cc(Nc2nccc(-c3cn(C)c4ccccc34)n2)c(OC)cc1N(C)CCN(C)C
2.9 µg·h/mL

----------
- EXPERIMENT NOTES: Pharmacokinetic study of osimertinib in rats after oral administration, with or without ginsenoside Rg3 pretreatment
- Format: in vivo, Male Sprague-Dawley rats
- DETAILS: male, Sprague-Dawley, rat, in vivo, po, 10 mg/kg, AUC0-t
VALUE KIND: AUC0-t (ng·h/mL)
Output spec: scalar in ng·h/mL, unitless text.

Request the reported AUC0-t associated with C=CC(=O)Nc1cc(Nc2nccc(-c3cn(C)c4ccccc34)n2)c(OC)cc1N(C)CCN(C)C
2820

----------
- EXPERIMENT NOTES: Pharmacokinetic study of osimertinib in rats after oral administration, with or without ginsenoside Rg3 pretreatment
- Type: in vivo, Male Sprague-Dawley rats
- DETAILS: male, Sprague-Dawley, rat, in vivo, po, 10 mg/kg, Vz/F
VALUE KIND: Vd/F (L/kg)
Output spec: scalar in L/kg, unitless text.

Request the reported Vd/F associated with C=CC(=O)Nc1cc(Nc2nccc(-c3cn(C)c4ccccc34)n2)c(OC)cc1N(C)CCN(C)C
130
